test system: K. pneumoniae NVT1001 gyrA/parC and gyrA/parC/ramR mutants and revertants; test: Etest MIC of quinolones, gyrA/parC and gyrA/parC/ramR mutants and their revertants (Table 11); type: cell-based; conditions: Klebsiella pneumoniae, S83I/D87N/S80I::I83S/N87D/I80S revertant; read-out: MIC
Value kind: MIC (µg/mL)
Unit µg/mL implied. Number only.

Give MIC for CCn1cc(C(=O)O)c(=O)c2cc(F)c(N3CCNCC3)cc21
0.25

Give MIC for C[C@H]1COc2c(N3CCN(C)CC3)c(F)cc3c(=O)c(C(=O)O)cn1c23
0.06

Give MIC for COc1c(N2C[C@@H]3CCCN[C@@H]3C2)c(F)cc2c(=O)c(C(=O)O)cn(C3CC3)c12
0.125

Give MIC for CC1COc2c(N3CCN(C)CC3)c(F)cc3c(=O)c(C(=O)O)cn1c23 (centres unmarked)
0.25

Give MIC for CCn1cc(C(=O)O)c(=O)c2ccc(C)nc21
4
